The reported numbers originate from ChEMBL document CHEMBL1201862.

- System: COLO 205
- EXPERIMENT: NCI tumour cell line growth inhibition, 48 h
Calls of active or inactive are those of the source. Cut-off read from the data, not from the text of the source: active = GI50 up to about 1.1 µM and inactive = higher.
READOUT LABEL: GI50

COC12C=CC(C=C1C#N)CC2.COC12C=CC(CC1)CC2=O (stereo not drawn) | > 100 µM (inactive)
Nc1nccc(Nc2ccc(S(N)(=O)=O)cc2)n1 | > 100 µM (inactive)

Proceeding to the next compound to report its GI50.
Entry COC1CC(n2ccc(=O)[nH]c2=O)OC1CO (stereo not drawn) , GI50 reported as > 100 µM (inactive)

----------
Below, each of the compounds is paired with its reported GI50 value.
- Tested on: SNB-75
- EXPERIMENT: NCI tumour cell line growth inhibition, 48 h
Calls of active or inactive are those of the source. Cut-off read from the data, not from the text of the source: active = GI50 up to about 1.1 µM and inactive = higher.

Illustrative cases are given below, each with its answer.
CC(C)(C)OP(=O)(OC(C)(C)C)C(O)c1ccc(/C=C(\C#N)C(N)=O)cc1 (centres undefined) | > 100 µM (inactive)
CN1c2c(O)nc(N)nc2NCC1CCNc1ccc(C(=O)NC(CCC(=O)O)C(=O)O)cc1 (centres undefined) | 553 µM (inactive)
Cc1c2ccccc2c(CO)c2cc(F)c3ccccc3c12 | 29.9 µM (inactive)

Entry CC(C)C(Sc1nc(-c2ccccc2)c(-c2ccccc2)[nH]1)c1n[nH]c(=S)n1-c1ccccc1 (centres undefined) , GI50 reported as 66.5 µM (inactive)

Entry O=[N+]([O-])c1cccc(/N=C2\c3ccccc3CN2c2cccc([N+](=O)[O-])c2)c1 , GI50 reported as 24.8 µM (inactive)
